System name: OsWOX13 (Oryza sativa, UniProt Q5QMM3 1-267)
Sequence: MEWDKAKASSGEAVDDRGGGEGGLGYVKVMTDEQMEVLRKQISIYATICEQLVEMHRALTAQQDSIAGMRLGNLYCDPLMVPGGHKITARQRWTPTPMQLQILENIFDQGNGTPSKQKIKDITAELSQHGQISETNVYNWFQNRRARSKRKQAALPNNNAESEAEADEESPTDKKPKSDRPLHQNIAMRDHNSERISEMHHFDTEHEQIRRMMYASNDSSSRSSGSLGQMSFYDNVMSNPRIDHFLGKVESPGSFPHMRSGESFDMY
Procedure summary: protein-binding microarray (RPBM); PBS, 2% BSA, 51.3 ng/ul salmon testes DNA, 50 uM zinc acetate, 200 nM TF, 25 C, 1 h; high values mean tight binding
Setup conditions: protein: recombinant; tags: N-terminal polyhistidine and DsRed monomer fusion (pET32a); label: CyDye5-dUTP incorporated in the synthesized complementary strand; 3' TTTTT single-stranded linker to array surface; dsDNA, one strand shown
Over roughly 35,000 sequences, “fluorescence intensity (a.u.)” has its median near 10,000; the highest 2% begin near 52,000. This excerpt belongs to a sample that is enriched for the highest values.
Experimental readout: binding signal

1. TACGCTATACGCAGTAATTGATATATATAATCTTCATGGTCGGAGTCACCTAGTGCAG; 8920 fluorescence intensity (a.u.)
2. AGTTGACAGTTCCAATTAATCGTTCATGCGACCCAATTGACGGAGTCACCTAGTGCAG; 21500 fluorescence intensity (a.u.)
3. CATGAATTGGAAGATTTGATGCACTGATACTCCATGAAGACGGAGTCACCTAGTGCAG; 8060 fluorescence intensity (a.u.)
4. CTCTCGATTGATTACCTAGTACTACTGCAATTCACATTGTCGGAGTCACCTAGTGCAG; 52200 fluorescence intensity (a.u.)
5. CTTCTAATTATTTGATATTAGGTCATTCTCTAATATTCACCGGAGTCACCTAGTGCAG; 21400 fluorescence intensity (a.u.)
6. TCGAAAGTAATTAGTACTAGATTGATTGTCAGTTCAGTCTCGGAGTCACCTAGTGCAG; 53100 fluorescence intensity (a.u.)
7. AATAAATTGTATTAATAACAAATTAGTCTATTCTATTAAACGGAGTCACCTAGTGCAG; 24100 fluorescence intensity (a.u.)
8. TCGTAAAATTAATTGTAAATTGTAATATGATAACAAGGCCCGGAGTCACCTAGTGCAG; 33100 fluorescence intensity (a.u.)
9. TTATGATTTCAAGGTTAATGCTGCAGTTTCAAACAAGTTACGGAGTCACCTAGTGCAG; 3480 fluorescence intensity (a.u.)

----------
System name: OsWOX13 (Oryza sativa, UniProt Q5QMM3 1-267)
Sequence: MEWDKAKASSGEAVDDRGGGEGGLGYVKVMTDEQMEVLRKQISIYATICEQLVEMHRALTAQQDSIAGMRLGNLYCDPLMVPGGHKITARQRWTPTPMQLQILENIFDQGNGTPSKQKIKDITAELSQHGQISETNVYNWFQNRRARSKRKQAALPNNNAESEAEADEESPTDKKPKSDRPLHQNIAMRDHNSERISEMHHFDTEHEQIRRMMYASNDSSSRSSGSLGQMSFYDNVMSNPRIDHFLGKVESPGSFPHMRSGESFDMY
Procedure summary: protein-binding microarray (RPBM); PBS, 2% BSA, 51.3 ng/ul salmon testes DNA, 50 uM zinc acetate, 200 nM TF, 25 C, 1 h; high values mean tight binding
Setup conditions: protein: recombinant; tags: N-terminal polyhistidine and DsRed monomer fusion (pET32a); label: CyDye5-dUTP incorporated in the synthesized complementary strand; 3' TTTTT single-stranded linker to array surface; dsDNA, one strand shown
The full ranking holds about 35,000 sequences; the median of “fluorescence intensity (a.u.)” is about 10,000, and the highest 2% start at about 52,000. What follows is part of a selection rich in the highest values, with near analogues and random picks from the rest.
Entries and their binding signal values follow.
Experimental readout: binding signal

1. GCACTGATTGAATTGAACTGTATAGAACAAAATGAAATTTCGGAGTCACCTAGTGCAG; 19600 fluorescence intensity (a.u.)
2. ATGATGATGATATACACGCCAAATTGAATTAGAAACTGATCGGAGTCACCTAGTGCAG; 6800 fluorescence intensity (a.u.)
3. CTGGAATGAGTGGTGGTTGATTGTTTAGTGTTTACTGTTCCGGAGTCACCTAGTGCAG; 18500 fluorescence intensity (a.u.)
4. GTTTCAATGATTGGTTGTTCACCCAACCCAAGTACCCAGCCGGAGTCACCTAGTGCAG; 57400 fluorescence intensity (a.u.)
5. CATCAATTAATTGACATGATACTATCTACCTTGCGTGTCGCGGAGTCACCTAGTGCAG; 65000 fluorescence intensity (a.u.)
6. TGATGATTGGTTTCTTGGCCAATGGTTTGGTTGTTGTTTTCGGAGTCACCTAGTGCAG; 23100 fluorescence intensity (a.u.)
7. TTGATAATTGGGCACCTATGCCCGACACATAAAACACACTCGGAGTCACCTAGTGCAG; 22200 fluorescence intensity (a.u.)
8. AGTGTGATTGATGCACAAACAAACAGCTCAAGTTGAGGCCCGGAGTCACCTAGTGCAG; 55400 fluorescence intensity (a.u.)
9. AATATAAATTTAGATTAGCAGTGGTAAGAAGAGGGACGTCCGGAGTCACCTAGTGCAG; 22600 fluorescence intensity (a.u.)

----------
System name: OsWOX13 (Oryza sativa, UniProt Q5QMM3 1-267)
Sequence: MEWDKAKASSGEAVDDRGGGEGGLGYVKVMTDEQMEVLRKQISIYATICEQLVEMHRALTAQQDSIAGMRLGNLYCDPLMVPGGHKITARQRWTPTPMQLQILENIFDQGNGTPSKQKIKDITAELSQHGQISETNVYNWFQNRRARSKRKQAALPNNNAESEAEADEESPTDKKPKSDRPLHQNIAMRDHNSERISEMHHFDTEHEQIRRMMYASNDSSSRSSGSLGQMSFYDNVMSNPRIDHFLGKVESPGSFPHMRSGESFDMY
Procedure summary: protein-binding microarray (RPBM); PBS, 2% BSA, 51.3 ng/ul salmon testes DNA, 50 uM zinc acetate, 200 nM TF, 25 C, 1 h; high values mean tight binding
Setup conditions: protein: recombinant; tags: N-terminal polyhistidine and DsRed monomer fusion (pET32a); label: CyDye5-dUTP incorporated in the synthesized complementary strand; 3' TTTTT single-stranded linker to array surface; dsDNA, one strand shown
Over roughly 35,000 sequences, “fluorescence intensity (a.u.)” has its median near 10,000; the highest 2% begin near 52,000. This is one part of a sample in which the highest values are shown more often than they occur.
Experimental readout: binding signal

1) TACACGAGATTGGAGGCACTAGGCCTCAGTACATGGCACGCGGAGTCACCTAGTGCAG; 3870 fluorescence intensity (a.u.)
2) TCTCTTCCTTGCTGTGGTGGCGGCGGGCGGGAGGGCGGCGCGGAGTCACCTAGTGCAG; 12700 fluorescence intensity (a.u.)
3) TGATAATTTTAAATTAAATAAGTAAATTTCAGAAAACTATCGGAGTCACCTAGTGCAG; 29700 fluorescence intensity (a.u.)
4) ATTAATCCACAATTATCAAAAGTTTACTGTAGCATCACATCGGAGTCACCTAGTGCAG; 5730 fluorescence intensity (a.u.)
5) CCATATAATTATGCTTGTTATTATGTGACAAAGAGCGGGTCGGAGTCACCTAGTGCAG; 25400 fluorescence intensity (a.u.)
6) AGTCATCAAAATTACGCATGTAATTAGTATATATAATTATCGGAGTCACCTAGTGCAG; 9910 fluorescence intensity (a.u.)
7) AAGAATTAATTAATGTTTAACTAGATGGCCTTATTATCTCCGGAGTCACCTAGTGCAG; 34300 fluorescence intensity (a.u.)
8) TCATCAGTTAATTAATACATGCATATTATATTATATAGGGCGGAGTCACCTAGTGCAG; 20200 fluorescence intensity (a.u.)
9) AGGAGGCGGGGCGGGGCGGCGGCGGCGGCGGCGGCGCCCGCGGAGTCACCTAGTGCAG; 5340 fluorescence intensity (a.u.)
10) CATTGTCATCCTGAGTAGATTGCCAATTATATGGGTTTGGCGGAGTCACCTAGTGCAG; 6170 fluorescence intensity (a.u.)
11) CTAATTTTATGGTTAATGGACACGATTTAATCTAGACTCTCGGAGTCACCTAGTGCAG; 13800 fluorescence intensity (a.u.)
12) ACGTTATTAATTACTTAGTACTACTATGAGTTAACTATGGCGGAGTCACCTAGTGCAG; 18500 fluorescence intensity (a.u.)
13) GCAGCTGACAGATGGAGGGATGTTCAGGATGTCCGGAGAACGGAGTCACCTAGTGCAG; 3250 fluorescence intensity (a.u.)
14) TGCCCTTACCTGTGGTTTCTCCCGCGGCGGCGGGGTGGAGCGGAGTCACCTAGTGCAG; 65500 fluorescence intensity (a.u.)
15) ATGTTAATGCAAAATAAATTAAATACATAGCAAGGTACTACGGAGTCACCTAGTGCAG; 11200 fluorescence intensity (a.u.)
16) CCTAATTAATCCATAATTATCAAAAGTTTACTGTAGCATCCGGAGTCACCTAGTGCAG; 62800 fluorescence intensity (a.u.)
17) ACATGTTTTATCAATTAGTAGTATGGGCATATTACTAGTGCGGAGTCACCTAGTGCAG; 17800 fluorescence intensity (a.u.)
18) GTTGAGATTAATTGTTCTATACTACTTTCTCTATCTAAAACGGAGTCACCTAGTGCAG; 7990 fluorescence intensity (a.u.)
19) TGTAATAGTGGGTTAATTAATTAGCTTGCCAGCTTCAGGGCGGAGTCACCTAGTGCAG; 21900 fluorescence intensity (a.u.)
